- assay info: NCI Yeast Anticancer Drug Screen. Data for the bub3 strain (AID 167)
- condition description: S. cerevisiae bub3 mutant strain, at 5.0 µM (retest, dose inferred, filed as 0.5), stronger effect = higher value
- Method: Growth inhibition of yeast strains with defined genetic alterations is measured as a screen for potential anti-cancer activity. Selected strains with alterations in DNA damage repair or cell cycle control were exposed to compounds and growth inhibition was measured relative to vehicle treated controls. The strain used in this assay is bub3
This is part of a sample that, as a whole, favours compounds with a hit. Of some 79,000 tested, about 15% had one in any assay. Active and inactive are the calls of the source. No stated cut-off is given here; in the data, active means growth inhibition above about 70%; inactive means the rest.

{"compound": "Cc1cc(CN(Cc2ccccc2)Cc2nc3ccccc3[nH]2)c(O)c(CN(Cc2nc3ccccc3[nH]2)Cc2nc3ccccc3[nH]2)c1", "growth inhibition": "3% (inactive)"}
{"compound": "Cc1ccc(SCc2ccc(Cl)cc2Cl)nn1", "growth inhibition": "12% (inactive)"}
{"compound": "C/C(=N\\NC(=S)NCCCNC(=S)N/N=C(\\C)c1ccccn1)c1ccccn1", "growth inhibition": "0% (inactive)"}
{"compound": "CCN(CC)c1ccc(NC(C(=O)c2ccc(Cl)cc2)c2ccc(Cl)cc2)cc1 (stereo unspecified)", "growth inhibition": "-1% (inactive)"}
{"compound": "CC(=O)c1c(-c2ccco2)c(C#N)c(=S)n(C2OC(CO)C(O)C(O)C2O)c1-c1ccccc1 (stereo unspecified)", "growth inhibition": "8% (inactive)"}
{"compound": "O=C1C=CC(=O)C(c2ccc(Cl)cc2)=C1", "growth inhibition": "44% (inactive)"}
{"compound": "O=C1C=CCCCC1(c1ccccc1)c1ccccc1", "growth inhibition": "-3% (inactive)"}
{"compound": "O=c1c2cc(Cl)ccc2[nH]c2cc(O)cc(O)c12", "growth inhibition": "-13% (inactive)"}
{"compound": "CC1(c2cccs2)C(C#N)(C#N)C1(C#N)C#N", "growth inhibition": "-4% (inactive)"}
{"compound": "OCC(c1ccccc1)c1ccccc1", "growth inhibition": "39% (inactive)"}
{"compound": "COc1cc(CC(=O)O)c(Cc2ccc3c(c2)Cc2ccccc2-3)cc1OC", "growth inhibition": "-7% (inactive)"}
